Just for reference, patent US20040209929A1 is where these values come from.

ASSAYED_TARGET: PPAR-γ (Homo sapiens, UniProt P37231)
Sequence (P37231 1-505): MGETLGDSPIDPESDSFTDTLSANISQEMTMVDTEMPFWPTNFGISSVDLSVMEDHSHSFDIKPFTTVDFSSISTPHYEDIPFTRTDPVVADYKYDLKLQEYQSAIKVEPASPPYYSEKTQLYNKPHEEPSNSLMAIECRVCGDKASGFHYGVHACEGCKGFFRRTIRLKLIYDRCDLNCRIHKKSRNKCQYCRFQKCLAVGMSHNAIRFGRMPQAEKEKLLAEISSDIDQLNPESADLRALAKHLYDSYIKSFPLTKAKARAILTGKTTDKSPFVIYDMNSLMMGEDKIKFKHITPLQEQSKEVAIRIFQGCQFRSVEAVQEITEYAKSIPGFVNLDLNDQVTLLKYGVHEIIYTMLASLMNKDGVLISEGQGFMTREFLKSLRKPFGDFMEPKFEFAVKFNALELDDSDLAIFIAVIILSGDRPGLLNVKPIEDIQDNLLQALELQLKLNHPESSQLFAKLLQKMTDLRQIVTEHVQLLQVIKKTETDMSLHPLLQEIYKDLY
pKi: −log10 of the molar value.
MEASURED_QUANTITY: pKi

Observe how each entry below is paired with its result.
INSERT INTO assay_data (structure_notation, numeric_result) VALUES
  ('Cc1oc(-c2ccccc2)nc1CCOc1ccnc2c1ccn2CCC(=O)O', 5.05),
  ('O=C(O)CCn1ncc2ccc(OCc3nc(-c4ccccc4)oc3-c3ccccc3)cc21', 5.74),
  ('Cc1oc(-c2ccccc2)nc1CCOc1ccnc2c(CCC(=O)O)cccc12', 5.07),
  ('Cc1oc(-c2ccccc2)nc1CCCn1ncc2c(OC(C)(C)C(=O)O)cccc21', 5.15),
  ('O=C(O)Cn1ncc2c(OCc3nc(-c4ccccc4)oc3-c3ccccc3)cccc21', 5.40);

P: O=C(O)CCn1ncc2c(OCc3nc(-c4ccccc4)oc3-c3ccccc3)cccc21
Q: Cc1oc(-c2ccccc2)nc1CCOc1cccc2c1ccn2CC(=O)O
R: Cc1oc(-c2ccccc2)nc1CCOc1cccc2c1cnn2CCC(=O)O
S: Cc1oc(-c2ccccc2)nc1CCOc1cccc2c1ccn2CCCC(=O)O
stdin: Order these by pKi, descending, and give the full ranking. Respond with the label ranking, as requested.
stdout: R, P, S, Q

###

Items are presented alongside their recorded Ki.
ASSAYED_TARGET: UniProtKB P37231

The recorded Ki with UniProtKB P37231 for "Cc1oc(-c2ccccc2)nc1COc1cccc2c1ccn2CCCC(=O)O" was > 100 µM

Item "O=C(O)CCCn1ncc2c(OCc3nc(-c4ccccc4)oc3-c3ccccc3)cccc21" ; assay system UniProtKB P37231; Ki reported as > 100 µM

###

ASSAYED_TARGET: PPAR-γ (Homo sapiens, UniProt P37231)
Sequence (P37231 1-505): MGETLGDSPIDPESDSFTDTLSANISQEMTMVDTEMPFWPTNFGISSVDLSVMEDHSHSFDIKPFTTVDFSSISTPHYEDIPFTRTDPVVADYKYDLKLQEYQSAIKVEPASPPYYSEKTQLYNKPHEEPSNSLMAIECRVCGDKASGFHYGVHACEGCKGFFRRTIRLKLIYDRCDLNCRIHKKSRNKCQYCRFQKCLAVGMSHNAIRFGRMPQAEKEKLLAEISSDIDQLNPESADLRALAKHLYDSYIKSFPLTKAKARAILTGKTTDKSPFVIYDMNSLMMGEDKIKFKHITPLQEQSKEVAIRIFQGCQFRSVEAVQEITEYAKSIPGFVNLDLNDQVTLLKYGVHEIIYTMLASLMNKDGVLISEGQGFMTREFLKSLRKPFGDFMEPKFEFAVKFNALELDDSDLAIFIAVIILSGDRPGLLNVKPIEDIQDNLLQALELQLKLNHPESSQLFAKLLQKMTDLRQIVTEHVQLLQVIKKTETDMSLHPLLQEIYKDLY
pKi: −log10 of the molar value.
Each entry below lists one item and its recorded pKi value.

The examples below pair each entry with its known result.
INSERT INTO assay_data (structure_notation, result) VALUES
  ('Cc1oc(-c2ccccc2)nc1COc1ccc2cnn(CC(=O)O)c2c1', '< 4.30'),
  ('Cc1oc(-c2ccccc2)nc1CCOc1ccc2cnn(CCC(=O)O)c2c1', '< 4.30'),
  ('Cc1oc(-c2ccccc2)nc1CCCOc1cccc2c1cnn2CC(=O)O', '< 4.30'),
  ('Cc1oc(-c2ccccc2)nc1COc1cccc2c1cnn2CCC(=O)O', 5.40);

// next entry
The reported pKi of the molecule "Cc1oc(-c2ccccc2)nc1CCCOc1cccc2c1cnn2CCCC(=O)O" was < 4.30
